Origin of the recorded values: PubChem BioAssay (NCI)

Experimental details: NCI Yeast Anticancer Drug Screen. Data for the bub3 strain (AID 167)
Details: S. cerevisiae bub3 mutant strain, at 50.0 µM, hits give high values
Compounds without any hit were thinned out: in the full panel of roughly 79,000, 15% have a hit.
Listed compounds paired with reported growth inhibition
Give the number; % is assumed, so skip it.

Problem: Fill in growth inhibition for record `CCCCCC1OCC(C)(C)CO1`
Solution: -3.05

Problem: Fill in growth inhibition for record COc1ccc2c(c1OC)C(O)N1CCc3cc4c(cc3C1=C2C(=O)c1ccccc1)OCO4 (stereo unspecified)
Solution: 28.1

Problem: Fill in growth inhibition for record `CCCCCCCCCCCCCCCC(=O)Nc1ccc(C(=O)C[n+]2ccc3c(NC(=O)CCC(=O)OC)cccc3c2)cc1`
Solution: 8.55

New cases:
Problem: Fill in growth inhibition for record CC(NC(=O)Nc1ccccc1Cl)c1ccccc1 (stereo unspecified)
Solution: 34

Problem: Fill in growth inhibition for record `NC(=O)NN/C=C(/C=Nc1ccccc1)[N+](=O)[O-]`
Solution: 6.55

Problem: Fill in growth inhibition for record `Cc1cc(S(=O)(=O)Nc2n[nH]c(-c3ccc(Cl)cc3)n2)c(SSc2cc(Cl)c(C)cc2S(=O)(=O)Nc2n[nH]c(-c3ccc(Cl)cc3)n2)cc1Cl`
Solution: 30.6

Problem: Fill in growth inhibition for record CCN1CC(C(=O)NC(C)C(=O)O)Cc2ccccc21 (stereo unspecified)
Solution: 1.45

Problem: Fill in growth inhibition for record `NC(=O)Nc1ccccc1`
Solution: -5.2

Problem: Fill in growth inhibition for record `N.N.N.N.N.O=C([O-])c1nn[n-]n1.[Cl-].[Co+3]`
Solution: 3.75

Problem: Fill in growth inhibition for record `CC(C)(C)OC(=O)c1c2ccccc2cc2ccccc12`
Solution: 12.1

Problem: Fill in growth inhibition for record `COc1cccc(CCN(CCOC(N)=O)CCOC(N)=O)c1OC`
Solution: -4.85

Problem: Fill in growth inhibition for record `COc1ccccc1NC(=O)C(C#N)=C(SC)SC`
Solution: -22.4

Problem: Fill in growth inhibition for record CCOC(=O)C(=O)C(C(=O)OCC)C(C)C(=O)OCC (stereo unspecified)
Solution: 6.65

Problem: Fill in growth inhibition for record `O=C(Nc1ccc2ccccc2c1)C(F)(F)F`
Solution: 5.4

Problem: Fill in growth inhibition for record CCCC(CNC(C)=O)(c1ccccc1)C1CCCCC1 (stereo unspecified)
Solution: 11.2

---

Experimental details: NCI Yeast Anticancer Drug Screen. Data for the mlh1 rad18 strain (AID 175)
Details: S. cerevisiae mlh1 rad18 strain growth inhibition; at 50.0 µM; hits give high values
About 79,000 compounds went through this panel and 15% of them were active in at least one assay; those are over-represented in the sample as a whole.
Listed compounds paired with reported growth inhibition
Give the number; % is assumed, so skip it.

Problem: Fill in growth inhibition for record `Nc1ccc(P(=O)(Nc2ccc3ccccc3c2)Nc2ccc3ccccc3c2)cc1`
Solution: 91.2

New cases:
Problem: Fill in growth inhibition for record CS(=O)(=O)OC1C(OC(=O)c2ccccc2)OC(COC(=O)c2ccccc2)C1OC(=O)c1ccccc1 (configuration not stated)
Solution: -13.8

Problem: Fill in growth inhibition for record `Cc1ccc(-n2c(O)c(N=Nc3ccccc3)c(=O)n(-c3ccccc3)c2=S)cc1`
Solution: -9.85

---

Experimental details: NCI Yeast Anticancer Drug Screen. Data for the bub3 strain (AID 167)
Details: S. cerevisiae bub3 mutant strain, at 50.0 µM, hits give high values
About 79,000 compounds went through this panel and 15% of them were active in at least one assay; those are over-represented in the sample as a whole.
Measured parameter: growth inhibition (%)
Give the number; % is assumed, so skip it.

Solved cases below.
Problem: Fill in growth inhibition for record `CCCCCCCCCCCCCCCCc1c(C(=O)OC)nc(NN)[nH]c1=O`
Solution: 2.1

Problem: Fill in growth inhibition for record `Nc1nc2ccc(Br)cc2s1`
Solution: 32.5

Problem: Fill in growth inhibition for record `CN(C)c1nc(NN)c2c(-c3ccccc3)c(-c3ccccc3)oc2n1`
Solution: 20.2

Problem: Fill in growth inhibition for record `COc1ccccc1/C=C(\S)C(=O)O`
Solution: -12.7

Problem: Fill in growth inhibition for record `CC(C)(C)NC(NC(C)(C)C)=C(/C=C(/Cl)[N+](=O)[O-])[N+](=O)[O-]`
Solution: 15.9

Problem: Fill in growth inhibition for record CC(C)(C)/[N+]([O-])=C/C(c1ccccc1)C(/C=[N+](/[O-])C(C)(C)C)c1ccccc1 (configuration not stated)
Solution: -2.1

New cases:
Problem: Fill in growth inhibition for record `COC1=C(NCCc2ccccc2)C(=O)C(OC)=C(NCCc2ccccc2)C1=O`
Solution: 1.5

Problem: Fill in growth inhibition for record `Cc1ccc(S(=O)(=O)C(CCC(=O)c2ccccc2)(CCC(=O)c2ccccc2)[N+](=O)[O-])cc1`
Solution: -1.5

Problem: Fill in growth inhibition for record COCCN1CCC(CO)C1 (configuration not stated)
Solution: 11.9

Problem: Fill in growth inhibition for record `Cc1ccc(Cl)cc1NC(=S)N(C)C`
Solution: 50.2

Problem: Fill in growth inhibition for record `COc1ccc(OC)c(/C=C/c2ccc(NC(=O)Nc3ccccc3Cl)cc2)c1`
Solution: 1.2

Problem: Fill in growth inhibition for record `Nc1ccc(I)cc1`
Solution: -23.2

---

Experimental details: NCI Yeast Anticancer Drug Screen. Data for the sgs1 mgt1 strain (AID 161);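 note: 0% = growth of cultures given vehicle only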
Details: S. cerevisiae sgs1 mgt1 strain, at 50.0 µM, hits give high values
Experimental: Growth inhibition of yeast strains with defined genetic alterations is measured as a screen for potential anti-cancer activity. Selected strains with alterations in DNA damage repair or cell cycle control were exposed to compounds and growth inhibition was measured relative to vehicle treated controls. The strain used in this assay is sgs1 mgt1
Compounds without any hit were thinned out: in the full panel of roughly 79,000, 15% have a hit.
Measured parameter: growth inhibition (%)
Give the number; % is assumed, so skip it.

Problem: Fill in growth inhibition for record `CCO[C@H]1OC(=O)[C@@H]2C(c3ccc(F)cc3)=NO[C@H]12`
Solution: 0.35

---

Experimental details: NCI Yeast Anticancer Drug Screen. Data for the rad50 strain (AID 155);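 note: 0% = growth of vehicle-only cultures of the same strain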
Details: S. cerevisiae rad50 strain growth inhibition; at 50.0 µM; hits give high values
Compounds without any hit were thinned out: in the full panel of roughly 79,000, 15% have a hit.
Measured parameter: growth inhibition (%)
Give the number; % is assumed, so skip it.

Problem: Fill in growth inhibition for record `O=C(O)CCc1ccccc1CC(=O)O`
Solution: 12.8

Problem: Fill in growth inhibition for record `CCN(CC)CCC(=O)c1ccc(OC)cc1`
Solution: 7.95

Problem: Fill in growth inhibition for record CCC(CC)C(O)CCCN(C)C (stereo not drawn)
Solution: 33.6

Problem: Fill in growth inhibition for record `Cc1ccc(C)c(CNC(=O)NC(C)(C)C)c1`
Solution: -10.2

Problem: Fill in growth inhibition for record `Cc1ccc(Cl)cc1NC(=O)Oc1ccc(C(C)(C)C)cc1Br`
Solution: 54.3

Problem: Fill in growth inhibition for record `CNC(=O)Nc1ccc(C(=O)O)cc1`
Solution: 9.2

Problem: Fill in growth inhibition for record CCC(C)C/C(C)=N\NC(N)=O (stereo not drawn)
Solution: 1.75

Problem: Fill in growth inhibition for record `CCCCN(CCCC)C(=O)OCC`
Solution: 30.2

---

Listed molecules paired with reported growth inhibition
Experimental details: NCI Yeast Anticancer Drug Screen. Data for the rad50 strain (AID 155);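 note: 0% = growth of vehicle-only cultures of the same strain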
Details: S. cerevisiae rad50 strain growth inhibition; at 50.0 µM; hits give high values
The panel holds about 79,000 compounds, 15% with a hit somewhere; the sample as a whole holds those more often.
Give the number; % is assumed, so skip it.

Solved cases below.
Problem: Fill in growth inhibition for record NC(C(=O)O)C1CCCC1 (stereo not drawn)
Solution: 2.8

Problem: Fill in growth inhibition for record `Cc1cc[n+](-c2nc3c([O-])n(C)c(=O)n(C)c-3n2)cc1`
Solution: 0.65

Problem: Fill in growth inhibition for record `CCOCCNCc1ccc(Cl)cc1Cl`
Solution: 4

Problem: Fill in growth inhibition for record `O=C(O)C(Cc1cccs1)(Cc1cccs1)C(=O)O`
Solution: -9

Problem: Fill in growth inhibition for record CC(=O)OCC1CC=CCC1C (stereo not drawn)
Solution: 5.35

Problem: Fill in growth inhibition for record `Nc1cc(Cl)c(N(CCO)C2=NCCN2)c(Cl)c1`
Solution: 3.8

Problem: Fill in growth inhibition for record `CCOC(=O)CC(=O)Nc1cc(C)cc(C)n1`
Solution: 2.1

Problem: Fill in growth inhibition for record `CCN(CC)c1ccc(/C=N\N(C)C)cc1`
Solution: 0.2

New cases:
Problem: Fill in growth inhibition for record `C1CSCCCSCCSCCCSC1`
Solution: -15.1

Problem: Fill in growth inhibition for record O=C(c1ccccc1)c1ccccc1NCC(O)COc1cccc2ccccc12 (stereo not drawn)
Solution: -7.5

Problem: Fill in growth inhibition for record COC(=O)C(CO)NC(=O)C(CC(C)C)NC(=O)C(CC(C)C)NC(=O)OCc1ccccc1 (stereo not drawn)
Solution: 34.6

Problem: Fill in growth inhibition for record O=C1C2Nc3ccccc3N=C2OC1c1ccc(Cl)c(Cl)c1 (stereo not drawn)
Solution: 10.1

Problem: Fill in growth inhibition for record `CCNCCN(CC)CC`
Solution: -12.7
